- Test system: P. aeruginosa-derived enzyme
- Assay type: biochemical, Pseudomonas aeruginosa
reported.property: Fluorescent signal of FRET: cleavage of substrate by P. aeruginosa-derived enzyme

substance	result
FITC-Ahx-Gly-Gly-Gly-DABCYL [BikKam22]	specifically cleaved
FITC-Ahx-Gly-Gly-DABCYL [BikKam23]	specifically cleaved
FITC-Ahx-Gly-Gly-Gly-Gly-Gly-DABCYL [BikKam20]	specifically cleaved

* * *

- target.under.test: lysostaphin (Staphylococcus simulans)
- Construct: purchased Sigma
- Sequence (P10547 248-493, species assumed): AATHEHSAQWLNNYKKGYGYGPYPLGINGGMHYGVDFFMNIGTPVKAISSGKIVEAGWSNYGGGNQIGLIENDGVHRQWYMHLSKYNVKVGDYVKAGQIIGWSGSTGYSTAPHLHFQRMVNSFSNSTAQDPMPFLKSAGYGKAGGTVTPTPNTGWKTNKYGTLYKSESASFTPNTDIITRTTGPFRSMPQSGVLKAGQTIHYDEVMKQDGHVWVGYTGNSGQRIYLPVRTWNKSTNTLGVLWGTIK
- Format: biochemical
*: point of attachment. FITC = O=C1OC2(c3ccc(O)cc3Oc3cc(O)ccc32)c2ccc(NC(=S)*)cc21; Ahx = NCCCCCC(=O)O

substance	Cleavage of substrate by lysostaphin
FITC-Ahx-Gly-Gly-Gly-Gly-Gly-DABCYL [BikKam20]	specifically cleaved
FITC-Ahx-Gly-Gly-Gly-Gly-DABCYL ({FITC-Ahx}-GGGG-{DABCYL}) [BikKam21]	specifically cleaved

* * *

- System: B. thuringiensis-derived enzyme
- Format: biochemical
reported.property: Fluorescent signal of FRET: cleavage of substrate by B. thuringiensis-derived enzyme

substance	result
FITC-Ahx-Leu-DLeu-Leu-Lys-DABCYL [BikKam5]	Some weak activity
FITC-Ahx-DLeu-Leu-Lys-DABCYL [BikKam2]	specifically cleaved
FITC-Ahx-Leu-DLeu-Lys-DABCYL [BikKam1]	Some weak activity
FITC-Ahx-DLeu-DLeu-Lys-DABCYL [BikKam4]	specifically cleaved

Then there is this substance:
Give the reported Fluorescent signal of FRET: cleavage of substrate by B. thuringiensis-derived enzyme for FITC-Ahx-Leu-Leu-Lys-DABCYL [BikKam3] (system: B. thuringiensis-derived enzyme). specifically cleaved

Just for reference, patent US8852883B2 is where these values come from.
